molecular target: SIK1 (Homo sapiens, UniProt P57059); construct: purchased Carna Biosciences 02-131; assay: biochemical; conditions: 33P radioactive SIK kinase assay, AMARA peptide, 10 μM ATP; read-out: SIK1 IC50
Sequence (P57059 whole entry): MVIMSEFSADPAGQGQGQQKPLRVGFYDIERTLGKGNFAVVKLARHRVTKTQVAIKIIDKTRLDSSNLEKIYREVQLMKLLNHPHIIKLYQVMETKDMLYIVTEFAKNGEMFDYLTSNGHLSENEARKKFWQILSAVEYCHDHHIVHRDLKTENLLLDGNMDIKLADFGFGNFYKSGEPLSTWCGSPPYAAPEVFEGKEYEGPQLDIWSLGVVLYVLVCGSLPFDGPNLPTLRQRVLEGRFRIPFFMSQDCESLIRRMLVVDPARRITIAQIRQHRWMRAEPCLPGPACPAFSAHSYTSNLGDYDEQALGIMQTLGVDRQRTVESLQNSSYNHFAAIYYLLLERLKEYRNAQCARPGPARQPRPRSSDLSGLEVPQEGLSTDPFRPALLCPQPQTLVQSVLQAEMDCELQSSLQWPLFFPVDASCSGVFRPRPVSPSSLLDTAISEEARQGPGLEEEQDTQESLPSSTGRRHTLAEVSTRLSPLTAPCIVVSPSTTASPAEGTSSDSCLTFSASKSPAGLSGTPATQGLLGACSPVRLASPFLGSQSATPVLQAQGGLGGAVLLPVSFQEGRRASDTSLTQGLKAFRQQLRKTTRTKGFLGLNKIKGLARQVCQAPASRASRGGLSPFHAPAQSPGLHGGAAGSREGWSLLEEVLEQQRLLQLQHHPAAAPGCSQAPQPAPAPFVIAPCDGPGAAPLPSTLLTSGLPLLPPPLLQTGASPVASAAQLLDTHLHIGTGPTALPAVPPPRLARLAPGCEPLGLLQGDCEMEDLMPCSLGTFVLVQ
VALUE KIND: IC50

Using SIK1 (Homo sapiens, UniProt P57059) as the test system, report measured IC50 of COc1cc(-n2cnc3cc(-c4cnn(C)c4)ccc32)cc(OC)c1C(=O)NC1CCCCC1OC (stereo not shown) [compound 161] . > 500 nM

Using SIK1 (Homo sapiens, UniProt P57059) as the test system, report measured IC50 of COc1cc(-n2cnc3cc(-c4cnc(C)n4C)ccc32)cc(OC)c1C(=O)NCC(F)(F)F [compound 138] . > 500 nM

Using SIK1 (Homo sapiens, UniProt P57059) as the test system, report measured IC50 of COc1cc(-n2cnc3cc(-c4cnn(C5CC5)c4)ccc32)cc(OC)c1C(=O)NCC(F)(F)F [compound 96] . 10 to 100 nM

Using SIK1 (Homo sapiens, UniProt P57059) as the test system, report measured IC50 of COc1cc(-c2cnc3cc(-c4cnn(CC(=O)OC5CC5)c4)ccn23)cc(OC)c1C(=O)NCC(F)(F)F [compound 234] . 0.01 to 10 nM
